These measurements were taken from patent US10807959B2.

Molecular target: UniProt P61964
Experiment: TR-FRET binding assay, displacement of 10mer-Thr-FAM probe from His-tagged WDR5
Details: Inhibition of WDR5 by TR-FRET assay
Measure name: pKi
Kindly note that pKi refers to -log10 of the concentration in mol/L and answer with the value alone.

// query Give UniProt P61964 pKi for COc1cc(CNC(=O)c2cc(CNC3=NCCC3)nc(-c3ccc(F)cc3C(F)(F)F)c2)cc(OC)c1 [Example 91]
// result 8.80

// query Give UniProt P61964 pKi for Cc1cc(-c2cc(CNC3=NCCC3)cc(C(=O)NCc3ccc(Cl)c(C)c3)c2)c(C)cc1F [Example 66]
// result 9.42

// query Give UniProt P61964 pKi for Cc1cc([C@H](C)NC(=O)c2cc(CNC3=NCCC3)cc(-c3ccc(F)cc3C(F)(F)F)n2)ccc1Cl [Example 92]
// result 8.82

----------
Molecular target: UniProt:P61964
Test: TR-FRET binding assay, displacement of 10mer-Thr-FAM probe from His-tagged WDR5
Details: Inhibition of WDR5 by TR-FRET assay
Record form. Attribute: pKi. Fill in for each entry.
Kindly note that pKi refers to -log10 of the concentration in mol/L and answer with the value alone.

// query Return reported pKi; argument: Cc1cccc(Oc2cc(CNC3=NCCN3)cc(C(=O)NCc3ccc(Cl)c(Cl)c3)c2)c1
// result 9.04

// query Return reported pKi; argument: Cc1cc(-c2cc(CNC3=NCCN3)cc(C(=O)NCc3nccc(C)n3)c2)ccn1
// result 7.89

// query Return reported pKi; argument: Cc1nc(F)ccc1-c1cc(Cn2ccnc2)cc(C(=O)NC(C2CC2)C2CC2)c1
// result 8.34

// query Return reported pKi; argument: Cc1nc(F)ccc1-c1cc(CNC2=NCCN2)cc(C(=O)NC(C2CC2)C2CC2)c1
// result 8.54

// query Return reported pKi; argument: O=C(NCc1ccc(Cl)c(Cl)c1)c1cc(Cn2ccnc2)cc(C(F)(F)F)c1
// result 8.00

// query Return reported pKi; argument: Cc1nccn1Cc1cc(C(=O)NCc2ccc(Cl)c(Cl)c2)cc(-c2cccc(CO)c2)c1
// result 9.51

// query Return reported pKi; argument: COc1ccnc(CNC(=O)c2cc(CNC3=NCCN3)cc(-c3ccnc(C)c3)c2)c1
// result 9.41

----------
Molecular target: WDR5 (Homo sapiens (Human))
Test: TR-FRET binding assay, displacement of 10mer-Thr-FAM probe from His-tagged WDR5
Details: Inhibition of WDR5 by TR-FRET assay
Simple rule here: Ki less than 2 nM is Yes, otherwise No.

// query In the record for Cc1cc(C(C)NC(=O)c2cc(CNC3=NCCC3)cc(-c3ccc(F)cc3C(F)(F)F)n2)ncc1Cl (stereo not shown) [Example 96] , is Ki less than 2 nM?
// result Yes

// query In the record for COc1ncc(Cl)cc1-c1cc(CNC2=NCCN2)cc(C(=O)NCc2ccc(Cl)c(Cl)c2)n1 [Example 86] , is Ki less than 2 nM?
// result Yes

// query In the record for COc1cc(CNC(=O)c2cc(CNC3=NCCN3)cc(-c3cnccc3C)c2)cc(OC)c1 [Example 13] , is Ki less than 2 nM?
// result Yes

// query In the record for COc1cc(CNC(=O)c2cc(CNC3=NCCN3)cc(-c3cnc(F)c(C)c3)c2)cc(OC)c1 [Example 30] , is Ki less than 2 nM?
// result Yes

// query In the record for COc1cc(CN(C)C(=O)c2cc(CNC3=NCCC3)cc(-c3ccc(F)nc3C)c2)cc(OC)c1 [Example 56] , is Ki less than 2 nM?
// result No

// query In the record for COc1cc(OC)cc(C(C)NC(=O)c2cc(Cn3ccnc3C)cc(-c3cccc(CO)c3)n2)c1 (stereo not shown) [Example 157] , is Ki less than 2 nM?
// result No

// query In the record for Cc1nccn1Cc1cc(OC2CCC2)cc(C(=O)NCc2ccc(Cl)c(Cl)c2)c1 [Example 143] , is Ki less than 2 nM?
// result Yes

// query In the record for COc1cc(F)ccc1-c1cc(CNC2=NCCC2)cc(C(=O)NCc2ccc(Cl)c(C)c2)c1 [Example 70] , is Ki less than 2 nM?
// result Yes

// query In the record for CNc1c(C(=O)N(C)Cc2cc(OC)cc(OC)c2)cc(CNC2=NCCC2)cc1-c1ccc(F)cc1C [Example 170] , is Ki less than 2 nM?
// result No

// query In the record for COc1cc(CNC(=O)c2cc(CNC3=NCCN3)cc(-c3cnc(F)c(Cl)c3)c2)cc(OC)c1 [Example 35] , is Ki less than 2 nM?
// result Yes

// query In the record for Cc1cc(CNC(=O)c2cc(CNC3=NCCN3)cc(-c3cnc(F)c(C)c3)c2)ccc1Cl [Example 31] , is Ki less than 2 nM?
// result Yes

// query In the record for COc1cc(OC)cc(C(C)NC(=O)c2cc(CNC3=NCCN3)cc(C(F)(F)F)c2)c1 (stereo not shown) [Example 33] , is Ki less than 2 nM?
// result No

// query In the record for COc1ccnc(CNC(=O)c2cc(CNC3=NCCN3)cc(-c3cc(C)c(F)cc3C)c2)c1 [Example 51] , is Ki less than 2 nM?
// result Yes

// query In the record for Cc1cc(-c2cc(CNC(=N)N)cc(C(=O)NCc3ccc(Cl)cn3)c2)ccn1 [Example 103] , is Ki less than 2 nM?
// result No

// query In the record for COc1ccnc(CNC(=O)c2cc(CNC3=NCCN3)cc(-c3ccc(F)cc3C(F)(F)F)c2)c1 [Example 47] , is Ki less than 2 nM?
// result Yes

// query In the record for COc1cc(CNC(=O)c2cc(CNC3=NCCN3)cc(-c3ccnc(C)c3)c2)ccc1Cl [Example 17] , is Ki less than 2 nM?
// result No

----------
Biological target: WDR5 (Homo sapiens (Human), UniProt P61964)
Assay: TR-FRET binding assay, displacement of 10mer-Thr-FAM probe from His-tagged WDR5
Details: Inhibition of WDR5 by TR-FRET assay
Measure name: pKi
Kindly note that pKi refers to -log10 of the concentration in mol/L and answer with the value alone.

// query Return reported pKi; argument: Cc1ccncc1-c1cc(CNC2=NCCN2)cc(C(=O)NCc2ccc(Cl)c(Cl)c2)n1
// result 9.62

// query Return reported pKi; argument: Cc1cc(CNC(=O)c2cc(CNC3=NCCC3)cc(-c3cccc(CO)c3)c2)ccc1Cl
// result 9.06

// query Return reported pKi; argument: COc1ccnc(CNC(=O)c2cc(CNC3=NCCN3)cc(-c3cc(F)cnc3OC)c2)c1
// result 9.20

----------
Record form. Attribute: pKi. Fill in for each entry.
Molecular target: WDR5 (Homo sapiens (Human), UniProt P61964)
Experiment: TR-FRET binding assay, displacement of 10mer-Thr-FAM probe from His-tagged WDR5
Conditions: Inhibition of WDR5 by TR-FRET assay
Kindly note that pKi refers to -log10 of the concentration in mol/L and answer with the value alone.

// query Return reported pKi; argument: COc1cc(CNC(=O)c2cc(CNC3=NCCC3)cc(-c3ccnc(C)c3)c2)cc(OC)c1 [Example 57]
// result 8.52

// query Return reported pKi; argument: Cc1cc(F)ccc1-c1cc(CNC2=NCCC2)cc(C(=O)N[C@@H](C)c2ccc(F)c(C(F)(F)F)c2)n1 [Example 97]
// result 8.14

// query Return reported pKi; argument: Cc1ccncc1-c1cc(CNC2=NCCN2)cc(C(=O)NCc2cc(F)cc(Cl)c2)c1 [Example 24]
// result 9.43

// query Return reported pKi; argument: Cc1cc(-c2cc(CNC3=NCCN3)cc(C(=O)NCc3ccc(Cl)c(Cl)c3)n2)ccn1 [Example 82]
// result 9.34

// query Return reported pKi; argument: CCn1cc(-c2cc(CNC(=N)CC3CC3)cc(C(=O)N[C@H](c3ccc(F)c(C)c3)C3CC3)c2)c(C(F)(F)F)n1 [Example 107]
// result 9.82

// query Return reported pKi; argument: COc1ccnc(CNC(=O)c2cc(CNC3=NCCN3)cc(-c3cnccc3C)c2)c1 [Example 19]
// result 9.35

// query Return reported pKi; argument: CNc1c(C(=O)N(C)Cc2cc(OC)cc(OC)c2)cc(CNC2=NCCN2)cc1-c1ccc(F)cc1C [Example 171]
// result 7.72

----------
Biological target: WDR5 (Homo sapiens (Human))
Assay: Fluorescence polarization anisotropy (FPA) competition assay, displacement of FITC-MLL or 10mer-Thr-FAM peptide
Type: binding
Conditions: Table B2, WDR5 WIN-site binding affinity; values not less than 1 nM (FPA)
Record form. Attribute: Ki. Fill in for each entry.
Please reply with the bare figure in nM and do not write the unit itself.

// query Give WDR5 (Homo sapiens (Human)) Ki for Cc1cc(C)cc(CNC(=O)c2cc(CNC3=NCCN3)cc(-c3ccc(F)cc3Cl)c2)c1 [Example B55]
// result 1.27

// query Give WDR5 (Homo sapiens (Human)) Ki for COc1cccc(CNC(=O)c2ccc(F)c(CNC3=NCCN3)c2)n1 [Example B25]
// result 74.2

// query Give WDR5 (Homo sapiens (Human)) Ki for Cc1cc(-c2cc(CNC3=NCCN3)cc(C(=O)NCc3cccc(F)n3)c2)ccn1 [Example B95]
// result 6.1

// query Give WDR5 (Homo sapiens (Human)) Ki for CC(NC(=O)c1cc(Cl)cc(CNC2=NCCN2)c1)c1cccc(Cl)c1 (stereo not drawn) [Example B12]
// result 65.1

// query Give WDR5 (Homo sapiens (Human)) Ki for Cc1cc(CNC(=O)c2cc(CNC3=NCCN3)cc(-c3ccc(F)cc3Cl)c2)ccc1Cl [Example B58]
// result 2.06

// query Give WDR5 (Homo sapiens (Human)) Ki for Cc1ccnc(CNC(=O)c2ccc(F)c(CNC3=NCCN3)c2)c1 [Example B29]
// result 24.9

// query Give WDR5 (Homo sapiens (Human)) Ki for COc1cc(CNC(=O)c2cccc(CNC3=NCCN3)c2F)cc(OC)c1 [Example B21]
// result 17.8

// query Give WDR5 (Homo sapiens (Human)) Ki for COc1cc(CN(C)C(=O)c2ccc(F)c(CNC3=NCCN3)c2)cc(OC)c1 [Example B24]
// result 49.8

// query Give WDR5 (Homo sapiens (Human)) Ki for Cc1cc(C)cc(CNC(=O)c2cc(Cl)cc(CNC3=NCCN3)c2)c1 [Example B11]
// result 46
